- ASSAY_EXPLANATION: Isoelectric point, log D and log P (SiriusT3)
- Format: physicochemical
- TEST_SETTINGS: pH 7.4, Log D (7.4)
Residues, ends and D or L forms follow the SMILES beside them.
logD values by entry

MOLECULE	logD
CC[C@H](C)[C@H](NC(C)=O)C(=O)N[C@@H](Cc1c[nH]cn1)C(=O)N[C@H](C(=O)N[C@H](C(=O)N[C@H](C(=O)N1CCC[C@H]1C(=O)N[C@@H](C)C(=O)N[C@@H](CC(=O)O)C(=O)N[C@@H](CC(C)C)C(=O)N[C@@H](Cc1c[nH]c2ccccc12)C(=O)N[C@@H](CC(=O)O)C(=O)N[C@@H](Cc1c[nH]c2ccccc12)C(=O)N[C@H](C(=O)N[C@@H](CCC(=O)O)C(=O)N[C@@H](CCC(=O)O)C(N)=O)C(C)C)[C@@H](C)CC)[C@@H](C)O)C(C)C [SEQ ID NO: 15] (Ac-IHVTIPADLWDWVEE-NH2)	1.88
CC[C@H](C)[C@H](NC(C)=O)C(=O)N[C@@H](Cc1c[nH]cn1)C(=O)N[C@H](C(=O)N[C@H](C(=O)N[C@H](C(=O)N1CCC[C@H]1C(=O)N[C@@H](C)C(=O)N[C@@H](CC(=O)O)C(=O)N[C@@H](CC(C)C)C(=O)N[C@@H](Cc1c[nH]c2ccccc12)C(=O)N[C@@H](CC(=O)O)C(=O)N[C@@H](Cc1c[nH]c2ccccc12)C(=O)N[C@H](C(=O)N[C@@H](CC(N)=O)C(=O)N[C@@H](CCCCN)C(N)=O)[C@@H](C)CC)[C@@H](C)CC)[C@@H](C)O)C(C)C [SEQ ID NO: 1, reference compound] (Ac-IHVTIPADLWDWINK-NH2)	-3.68
